SYSTEM: T1, human CLDN6 fused to GFP, expressed on engineered HEK293T cells (HEK293T-CLDN6-mGFP) (human, UniProt P56747 1-220)
T1 construct: It calls residues 1-21 a signal peptide; also called Claudin-6; HEK293T-CLDN6-mGFP Artificial CLDN6+; not shown: mGFP tag
T1 sequence: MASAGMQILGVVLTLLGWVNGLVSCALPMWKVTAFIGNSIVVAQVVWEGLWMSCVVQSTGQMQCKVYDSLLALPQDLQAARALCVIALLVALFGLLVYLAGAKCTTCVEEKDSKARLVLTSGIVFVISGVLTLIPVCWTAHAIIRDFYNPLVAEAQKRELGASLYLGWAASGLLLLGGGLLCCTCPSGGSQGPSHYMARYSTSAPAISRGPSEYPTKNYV
EXPERIMENT SUMMARY: FACS, 0.3 µg Ab, 293T clone with human CLDN6
VALUE KIND: FACS fluorescence
Answer with a number only.

- BINDER: "AB4-10 (antibody, V domains shown, Humanized; also called Humanized AB 4-10) VH: QVQLVQSGAEVKKPGASVKMSCKASGYTFTSYTMHWIRQAPGQGQEWIGYINPSSTYTHYIKKFKDRATLTADTSTSTAYMELSSLRSEDTAVYYCSRGELGGFAYWGQGTLVTVSS VL: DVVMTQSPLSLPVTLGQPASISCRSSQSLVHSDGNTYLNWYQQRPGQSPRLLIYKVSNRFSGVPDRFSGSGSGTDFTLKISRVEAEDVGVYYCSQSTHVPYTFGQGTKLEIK"
  FACS fluorescence: 50800
- BINDER: "AB3-3 (antibody, V domains shown, also called Humanized AB 3-3) VH: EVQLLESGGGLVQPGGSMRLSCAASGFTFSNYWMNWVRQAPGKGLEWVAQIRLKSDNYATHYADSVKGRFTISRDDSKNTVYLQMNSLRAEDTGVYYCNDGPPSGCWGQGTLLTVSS VL: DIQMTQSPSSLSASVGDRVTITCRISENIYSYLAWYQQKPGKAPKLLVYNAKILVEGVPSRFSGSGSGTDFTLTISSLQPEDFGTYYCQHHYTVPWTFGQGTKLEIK"
  FACS fluorescence: 251000
- BINDER: "AB18-4 (antibody, V domains shown, also called Humanized AB 18-4) VH: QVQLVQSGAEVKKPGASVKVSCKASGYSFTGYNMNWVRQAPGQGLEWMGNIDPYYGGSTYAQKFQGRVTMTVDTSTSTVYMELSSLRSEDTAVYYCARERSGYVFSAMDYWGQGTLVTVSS VL: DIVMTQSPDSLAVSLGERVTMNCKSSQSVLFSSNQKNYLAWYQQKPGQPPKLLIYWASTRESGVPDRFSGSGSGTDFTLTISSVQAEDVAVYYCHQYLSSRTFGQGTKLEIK"
  FACS fluorescence: 32400

Let's switch to this binder now.
Qu. Give its FACS fluorescence value. Item: AB4-4 (antibody, V domains shown, also called Humanized AB 4-4) VH: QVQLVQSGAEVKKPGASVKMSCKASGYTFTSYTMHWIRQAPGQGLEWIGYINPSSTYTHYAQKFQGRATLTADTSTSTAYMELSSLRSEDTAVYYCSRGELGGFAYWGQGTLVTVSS VL: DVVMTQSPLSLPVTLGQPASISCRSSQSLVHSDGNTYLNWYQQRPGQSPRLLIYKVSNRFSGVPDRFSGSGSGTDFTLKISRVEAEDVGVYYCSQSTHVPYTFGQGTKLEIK
Ans. 14100
